Biological target: human CaMKIIδ (Homo sapiens)
Construct: Full-length, glutathione-S-transferase(GST)-tagged, human CaMKIIδ was purchased from Carna Biosciences; purchased Carna Biosciences (CaMKIIδ); Wako Pure Chemical Industries (calmodulin) 02-111
Experiment: Evaluation of in vitro CaMKII inhibitory activity (binding assay, TR-FRET)
Conditions: human CaMKIIδ, TR-FRET binding assay; class symbols A/B/C; read-out: Act (CaMKII inhibitory activity, binding assay)
Experimental: Evaluation of In Vitro CaMKII Inhibitory Activity (Binding Assay) In vitro CaMKIIδ inhibitory activity was evaluated by a binding assay. Full-length bovine calmodulin was purchased from Wako Pure Chemical Industries (Osaka, Japan). […] Time-resolved fluorescence resonance energy transfer (TR-FRET) assay […] The half maximal inhibitory concentration (IC50) of test compounds was calculated by fitting the data with the logistic equation using XLfit (IDBS, Guildford, UK).
For each of the compounds below, state its IC50.

[in] Identify the reported IC50 for the following entry. CNC(=O)c1ccc(-c2cnn3ccc(-c4ccc(F)c(O[C@@H](C)Cn5cnnn5)c4)nc23)cc1
[out] < 10 nM

[in] Identify the reported IC50 for the following entry. COc1cc(F)cc(-c2cnc3ccc(-c4cc(N[C@@H](C)Cn5cnnn5)ccn4)nn23)c1C#N
[out] < 10 nM

[in] Identify the reported IC50 for the following entry. CNC(=O)c1ccc(C#N)c(-c2cnc3ccc(-c4ccc(F)c(O[C@@H](C)Cn5cnnn5)c4)nn23)c1
[out] < 10 nM

[in] Identify the reported IC50 for the following entry. COCCCOc1cccc(-c2cnc3ccc(-c4ccc(F)c(O[C@@H](C)Cn5cnnn5)c4)nn23)c1C#N
[out] < 10 nM
